Recorded IC50 values for a group of compounds are listed next.
Molecular target: Angiotensin-converting enzyme (Rattus norvegicus)
Sequence (P47820 whole entry): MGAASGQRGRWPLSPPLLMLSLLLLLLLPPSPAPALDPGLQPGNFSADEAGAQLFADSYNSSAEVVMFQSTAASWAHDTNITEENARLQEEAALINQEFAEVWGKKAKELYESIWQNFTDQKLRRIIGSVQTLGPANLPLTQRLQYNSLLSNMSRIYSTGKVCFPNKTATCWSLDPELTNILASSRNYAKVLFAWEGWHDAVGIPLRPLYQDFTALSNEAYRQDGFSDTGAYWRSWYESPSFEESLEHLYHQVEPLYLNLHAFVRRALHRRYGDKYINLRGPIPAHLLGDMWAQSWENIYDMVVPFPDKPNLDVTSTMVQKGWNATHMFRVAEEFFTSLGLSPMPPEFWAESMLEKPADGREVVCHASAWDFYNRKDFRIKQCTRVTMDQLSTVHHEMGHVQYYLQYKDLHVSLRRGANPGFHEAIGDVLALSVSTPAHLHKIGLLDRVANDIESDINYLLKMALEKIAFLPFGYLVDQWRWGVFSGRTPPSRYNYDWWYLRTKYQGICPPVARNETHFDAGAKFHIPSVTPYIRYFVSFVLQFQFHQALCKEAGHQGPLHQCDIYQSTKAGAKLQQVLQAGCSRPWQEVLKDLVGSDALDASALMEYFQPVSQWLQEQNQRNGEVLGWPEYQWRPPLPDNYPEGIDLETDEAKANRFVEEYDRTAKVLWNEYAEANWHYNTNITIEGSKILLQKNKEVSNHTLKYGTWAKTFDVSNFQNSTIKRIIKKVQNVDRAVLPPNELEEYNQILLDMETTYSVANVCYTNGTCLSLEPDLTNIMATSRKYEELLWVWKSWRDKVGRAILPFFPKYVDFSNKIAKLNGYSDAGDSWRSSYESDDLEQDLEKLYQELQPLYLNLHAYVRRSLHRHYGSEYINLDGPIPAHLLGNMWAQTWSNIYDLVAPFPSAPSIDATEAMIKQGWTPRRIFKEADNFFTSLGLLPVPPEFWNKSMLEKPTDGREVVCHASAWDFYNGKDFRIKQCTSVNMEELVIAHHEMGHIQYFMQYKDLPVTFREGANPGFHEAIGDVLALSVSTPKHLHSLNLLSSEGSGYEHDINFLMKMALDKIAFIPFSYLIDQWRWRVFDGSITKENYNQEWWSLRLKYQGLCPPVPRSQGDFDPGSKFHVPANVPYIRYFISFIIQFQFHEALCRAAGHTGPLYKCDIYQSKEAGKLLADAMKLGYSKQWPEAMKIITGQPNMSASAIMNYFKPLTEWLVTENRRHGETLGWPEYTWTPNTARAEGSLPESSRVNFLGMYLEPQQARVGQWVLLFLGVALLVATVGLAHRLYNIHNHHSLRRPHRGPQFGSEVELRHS
# number only, unit nM dropped from output

Examples from the recorded data:
O=C(CCS)N1CCCC1P(=O)(O)O (centres undefined) :: 1700
O=C(O)[C@@H]1CCCN1C(=O)CCS :: 200
C[C@@H](CS)C(=O)N1CCC[C@H]1C(=O)NO :: 22

In the following, a different compound is considered.
Task: Observed IC50 on Angiotensin-converting enzyme (Rattus norvegicus) for "C[C@@H](CS)C(=O)N1CCC[C@H]1c1nn[nH]n1" , please.
Result: 260
